Value source: PubChem BioAssay AID1159580

Experiment: chemical genetic growth profiling, strain panel (AID 1159580);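 further: tested at 20 µM; growth read once vehicle control cultures reached saturation at 30 °C; 1 = growth at the plate median or of vehicle wells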
Details: S. cerevisiae deletion strains, growth OD, locus YNL233W, strain BNI4, stronger effect = lower value
In all, about 5,500 compounds went through this assay and about 2,000 (36%) were called active. Another 18% or so got no clear call; they are omitted. Some of the results follow.
The compounds listed here are annotated with their normalized growth.
Readout: normalized growth

* CC1=C(/C=C/C(C)=C/C=C/C(C)=C/CO)C(C)(C)CCC1 | 0.974
* CC1=C(/C=C/C(C)=C/C=C/C(C)=C/C=C/C=C(C)/C=C/C=C(C)/C=C/C2=C(C)CCCC2(C)C)C(C)(C)CCC1 | 1.01
* CC1=C(/C=C/C(C)=C/C=C/C(C)=C\C(=O)O)C(C)(C)CCC1 | 0.947
* CC[C@]12CCCN3CCc4c(n(c5ccccc45)C(=O)C1)[C@@H]32 | 0.943
* CC(=O)OC/C=C(C)/C=C/C=C(C)/C=C/C1=C(C)CCCC1(C)C | 1.05

###

Assay: chemical genetic growth profiling, strain panel (AID 1159580)
Details: S. cerevisiae deletion strains, growth OD, locus YOR070C, strain gyp1, stronger effect = lower value
In all, about 5,500 compounds went through this assay and about 2,000 (36%) were called active. Another 18% or so got no clear call; they are omitted. The list shows a part of the results.
Mark 1.0 for normalized growth under 1, 0.0 if at or over.

* COc1ccc(/C=C/C(=O)c2cc(O)ccc2O)cc1 | 1.0
* C#C[C@]1(O)CCC2C3CCc4cc(OC)ccc4C3CC[C@@]21C (stereo partly specified) | 1.0
* S=c1[nH]c2ccccc2s1 | 1.0
* Cc1cccc(CN2CCN(C(c3ccccc3)c3ccc(Cl)cc3)CC2)c1 (stereo unspecified) | 1.0
* CC1(C)CC2C1CCC1(C)OC1CCC2(C)O (stereo unspecified) | 0.0
* CCn1cc(C(=O)O)c(=O)c2ccc(C)nc21 | 1.0
* c1ccc(-c2ccc(C(c3ccccc3)n3ccnc3)cc2)cc1 (stereo unspecified) | 1.0
* CC(=O)O[C@H]1CC[C@@]2(C)C(=CCC3C2CC[C@]2(C)C(=O)CCC32)C1 (stereo partly specified) | 1.0
* CC[C@@]1(C2O[C@@H](C3O[C@@](O)(CC)[C@H](C)C[C@@H]3C)C[C@@H]2C)CC[C@H]([C@]2(C)CCC3(C[C@H](O)[C@@H](C)[C@@H]([C@H](C)[C@@H](OC)[C@H](C)C(=O)O)O3)O2)O1 (stereo partly specified) | 0.0

###

Assay: chemical genetic growth profiling, strain panel (AID 1159580)
Settings: S. cerevisiae deletion strains, growth OD, locus YPL078C, strain atp4, stronger effect = lower value
In all, about 5,500 compounds went through this assay and about 2,000 (36%) were called active. Inconclusive results (about 18%) are left out. The list shows a part of the results.
Readout: normalized growth

- O=C1CN(/N=C\c2ccc([N+](=O)[O-])o2)C(=O)N1: 0.956
- C[C@H](COc1ccccc1)N[C@H](C)[C@H](O)c1ccc(O)cc1: 0.993
- NC(=O)c1cc[n+](CC2=C(C(=O)O)N3C(=O)C(NC(=O)C(c4ccccc4)S(=O)(=O)[O-])C3SC2)cc1 (stereo unspecified): 0.962
- CC12CCCC(O)(C1)C1CC(C)(C)C1CC2 (stereo unspecified): 0.941
- S=c1[nH]c2ccccc2s1: 1
- NC(=O)N/N=C\c1ccc([N+](=O)[O-])o1: 0.991
- O=C1OCCN1/N=C\c1ccc([N+](=O)[O-])o1: 0.932
- CC1(C)O[C@@H]2[C@@H](CO[C@@]3(COS(N)(=O)=O)OC(C)(C)O[C@@H]23)O1: 1.04
- CC1(C)CC2C1CCC1(C)OC1CCC2(C)O (stereo unspecified): 1.02
- CC1(C)O[C@@H]2CC3C4CCC5=CC(=O)C=C[C@]5(C)C4[C@@H](O)C[C@]3(C)[C@]2(C(=O)CO)O1 (stereo partly specified): 0.995
- COP(=S)(OC)Oc1ccc(SC)c(C)c1: 0.988

###

Assay: chemical genetic growth profiling, strain panel (AID 1159580)
Conditions: S. cerevisiae deletion strains, growth OD, locus YPL051W, strain arl3, stronger effect = lower value
About 2,000 (36%) of roughly 5,500 compounds were called active. Roughly 18% stayed inconclusive and do not appear here. Some of the results follow.
Rule for this label: y means normalized growth is less than 1; n means normalized growth is at least 1.

• COc1ccc(/C=C/C(=O)c2cc(O)ccc2O)cc1 = y
• CCCCC(CC)CN=C(N)NC(N)=NCCCCCCN=C(N)NC(N)=NCC(CC)CCCC (configuration not stated) = y
• CN1CCc2cccc3c2C1Cc1ccc(O)c(O)c1-3 (configuration not stated) = y
• COc1cc(C)c2c(c1C=O)Oc1c(c(C)c(O)c3c1C(O)OC3=O)OC2=O (configuration not stated) = n
• CC[C@]12CCCN3CCc4c(n(c5ccccc45)C(=O)C1)[C@@H]32 = y
• Nc1nccs1 = y

###

List of normalized growth values.
Experiment: chemical genetic growth profiling, strain panel (AID 1159580)
Conditions: S. cerevisiae deletion strains, growth OD, locus YHR079C, strain IRE1 (second series), stronger effect = lower value
Among all 5,500 compounds or so, about 2,000 (36%) were called active. Not shown: some 18% with an inconclusive outcome. This is one part of the list.
Readout: normalized growth

• Nc1ccc(S(=O)(=O)Nc2nccs2)cc1 = 0.995
• O=c1cccc2n1C[C@H]1CNCC2C1 = 0.966
• CCCSP(=O)(OCC)SCCC = 0.982
• Nc1nccs1 = 0.989
• COc1c(C2COc3cc4c(cc3C2=O)CC(O)C(C)(C)O4)ccc2c1CCC(C)(C)O2 (centres undefined) = 1.02
• Cc1cccc(CN2CCN(C(c3ccccc3)c3ccc(Cl)cc3)CC2)c1 (centres undefined) = 0.942
• CC1CC2C(C(O)CC3(C)C2CCC3(O)C(=O)COC(=O)CCC(=O)O)C2(C)C=CC(=O)C=C12 (centres undefined) = 0.979
• CC(=O)Oc1cc(C)c2c(c1C(OC(C)=O)OC(C)=O)Oc1c(c(C)c(OC(C)=O)c3c1C(OC(C)=O)OC3=O)OC2=O (centres undefined) = 0.983
• CCCN(CCC)C(=O)C(CCC(=O)O)NC(=O)c1ccccc1 (centres undefined) = 0.991

###

Experiment: chemical genetic growth profiling, strain panel (AID 1159580);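 further: tested at 20 µM; growth read once vehicle control cultures reached saturation at 30 °C; 1 = growth at the plate median or of vehicle wells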
Conditions: S. cerevisiae deletion strains, growth OD, locus YNR049C, strain mso1, stronger effect = lower value
Among all 5,500 compounds or so, about 2,000 (36%) were called active. About 18% were inconclusive and are not listed. This is one part of the list.
Readout: normalized growth

• CCOC(=O)CCCCCCCCCCCCC1C=CCC1 (stereo unspecified) = 0.987 (inactive)
• COc1ccc(-c2cc(C(F)F)nn2-c2ccc(S(N)(=O)=O)cc2)cc1F = 1.01 (inactive)
• N[C@@H](CCC(=O)N[C@@H](CCSC(CC(=O)O)C(=O)O)C(=O)NCC(=O)O)C(=O)O (stereo partly specified) = 0.997 (inactive)
• CC[C@@H](C(=O)[C@@H](C)[C@@H](O)[C@H](C)[C@@H]1O[C@@H]([C@@H](CC)C(=O)O)CC[C@@H]1C)[C@H]1OC2(C=C[C@@H](O)[C@]3(CC[C@@](C)([C@H]4CC[C@](O)(CC)[C@H](C)O4)O3)O2)[C@H](C)C[C@@H]1C (stereo partly specified) = 0.923 (inactive)
• NCc1ccc(S(N)(=O)=O)cc1 = 0.999 (inactive)
• O=C(O)CCCCC1SCC2NC(=O)NC21 (stereo unspecified) = 0.978 (inactive)

###

Test: chemical genetic growth profiling, strain panel (AID 1159580);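 further: tested at 20 µM; growth read once vehicle control cultures reached saturation at 30 °C; 1 = growth at the plate median or of vehicle wells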
Conditions: S. cerevisiae deletion strains, growth OD, locus YNL298W, strain CLA4 (second series), stronger effect = lower value
Out of some 5,500 compounds screened, about 2,000 (36%) were called active. Roughly 18% stayed inconclusive and do not appear here. Some of the results follow.
Below, each of the molecules is paired with its reported normalized growth value.
Readout: normalized growth

* CN1c2ccccc2C(=O)NC1c1cc(Br)cs1 (stereo unspecified) | 1.04
* CC(C)(O)C#Cc1ccc(/C=N\O)cc1 | 0.977
* O=C(O)c1cc(C(F)(F)F)ccc1F | 0.996
* CC(C)(C)c1nc(N)sc1Br | 0.981
* C/C(=N/NC1=NCCN1)c1ccc(F)cc1 | 1.02
* O=C(O)CC(CC(=O)O)c1ccc(C(F)(F)F)cc1 | 1.04

###

Assay: chemical genetic growth profiling, strain panel (AID 1159580);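 further: tested at 20 µM; growth read once vehicle control cultures reached saturation at 30 °C; 1 = growth at the plate median or of vehicle wells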
Details: S. cerevisiae deletion strains, growth OD, locus YLL041C, strain sdh2, stronger effect = lower value
Screen size: about 5,500 compounds; about 2,000 (36%) were called active. Not shown: some 18% with an inconclusive outcome. The list shows a part of the results.
Items are presented alongside their recorded normalized growth.
Readout: normalized growth

• O=C(O)CCC(=O)c1ccc(-c2ccccc2)cc1 = 0.979
• CC(=O)O[C@H]1C[C@@H](OC(C)=O)C(C)(C)C2C[C@@H](OC(C)=O)[C@]3(C)C(CC[C@@]4(C)[C@H](c5ccoc5)C(=O)[C@H]5O[C@]543)[C@]21C (some centres not stated) = 0.994
• CC12CCC(CC1)C(C)(C)O2 = 0.974
• CCOC(=O)CCCCCCCCCCCCC1C=CCC1 (configuration not stated) = 0.992
• CCOc1ccc2c(c1)C(C)=CC(C)(C)N2 = 0.989
• O=C(O)CNCP(=O)(O)O = 1.01
• Nc1nccs1 = 0.991
• CC1(C)O[C@@H]2[C@@H](CO[C@@]3(COS(N)(=O)=O)OC(C)(C)O[C@@H]23)O1 = 0.991
• C[C@@H]1C[C@@H]([C@H](O)CC2CC(=O)NC(=O)C2)C(=O)[C@@H](C)C1 = 0.0553
• O=C1O[C@@H](CO)[C@H](O)[C@@H](O)[C@@H]1O = 1.02
• N[C@@H](CCC(=O)N[C@@H](CCSC(CC(=O)O)C(=O)O)C(=O)NCC(=O)O)C(=O)O (some centres not stated) = 1.01
• O=C(O)CCCCC1SCC2NC(=O)NC21 (configuration not stated) = 0.977
• O=C(O)c1cc(=O)c2c(OCC(O)COc3cccc4oc(C(=O)O)cc(=O)c34)cccc2o1 = 0.973
• O=C1OCCN1/N=C\c1ccc([N+](=O)[O-])o1 = 1
• COc1cc(C)c2c(c1C=O)Oc1c(c(C)c(O)c3c1C(O)OC3=O)OC2=O (configuration not stated) = 1.01
• NC(=O)N/N=C\c1ccc([N+](=O)[O-])o1 = 0.995
• CCCN(CCC)C(=O)C(CCC(=O)O)NC(=O)c1ccccc1 (configuration not stated) = 0.982
• CO[C@@H]1[C@@H](O[C@@H]2O[C@H](C)[C@@H](O[C@H]3C[C@@](C)(O)[C@H](O)[C@H](C)O3)[C@H](N(C)C)[C@H]2O)[C@@H](CC=O)C[C@@H](C)[C@@H](O[C@H]2CC[C@H](N(C)C)[C@@H](C)O2)/C=C/C=C/C[C@H](C)OC(=O)C[C@H]1O = 1.01
• O=C1CN(/N=C\c2ccc([N+](=O)[O-])o2)C(=O)N1 = 0.978
• COc1ccccc1OCC(O)CN1CCN(CC(=O)Nc2c(C)cccc2C)CC1 (configuration not stated) = 1.02
• CCOC(=O)c1ccc(N)cc1 = 1.02
• COc1ccc(CN(CCN(C)C)c2ncccn2)cc1 = 0.995
